test system: Pasteurella multocida 60A; experiment: conventional broth-dilution microtiter test, MIC; assay type: cell-based; conditions: avian isolate

molecule | target | MIC (minimal inhibitory concentration)
CCC1OC(=O)CC(O)C(C)C(OC2OC(C)C(OC3CC(C)(O)C(OC(=O)Cc4ccccc4)C(C)O3)C(N(C)C)C2OC(C)=O)C(CC=O)CC(C)C(=O)C=CC(C)=CC1COC(=O)Cc1ccccc1 (stereo not drawn) [Compound 5, 2'-O-Acetyl-23,4"-Di-O-Phenylacetyl-DMT] | Pasteurella multocida 60A | > 50
CCC1OC(=O)CC(O)C(C)C(OC2OC(C)C(OC3CC(C)(O)C(OC(=O)Cc4ccccc4)C(C)O3)C(N(C)C)C2O)C(CC=O)CC(C)C(=O)C=CC(C)=CC1COC(=O)Cc1ccccc1 (stereo not drawn) [Compound 6, 23,4"-Di-O-Phenylacetyl-DMT] | Pasteurella multocida 60A | > 50
CCC(=O)OC1CC(=O)OC(CC)C(C)C=C(C)C=CC(=O)C(C)CC(CC=O)C(OC2OC(C)C(OC3CC(C)(O)C(OC(=O)CC)C(C)O3)C(N(C)C)C2OC(C)=O)C1C (stereo not drawn) [Compound 23, 2'-O-Acetyl-3,4"-Di-O-Propionyl-DMOT] | Pasteurella multocida 60A | > 50
